Record form. Attribute: Kd. Fill in for each entry.
Biological target: VEGF165 (Homo sapiens, UniProt P15692-4 P15692-4:27-191)
Sequence (P15692 other isoform, or with tags, fused parts or gaps): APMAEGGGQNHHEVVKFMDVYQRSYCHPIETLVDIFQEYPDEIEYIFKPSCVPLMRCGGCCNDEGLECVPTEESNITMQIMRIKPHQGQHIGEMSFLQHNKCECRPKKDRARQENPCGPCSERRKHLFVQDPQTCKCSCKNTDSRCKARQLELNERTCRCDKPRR
Experiment: filter; 37C
Details: tags: R&D Systems carrier-free, expressed in Sf21 insect cells; chain copies: homodimer (inferred)
# output: bare number, implied unit nM

Data request: Write down Kd measured for item GAAUCAGUGAAUGCUUAUACAUCT (ssRNA, 2'-F pyrimidines; 3'-3' dT cap (N24) [24 (3'-3' dT cap); all C/U 2'-F]) [t44c]
Data returned: 2

Data request: Return value of Kd for input AACCGAUGGAAUUUUUGGACGCUT (ssRNA, 2'-F pyrimidines; 3'-3' dT cap (N24) [24 (3'-3' dT cap); all C/U 2'-F]) [t2d] , no commentary.
Data returned: 20

Data request: Read off the recorded Kd for GAACCGAUGGAAUUUUUGGACGCUCT (ssRNA, 2'-F pyrimidines; 3'-3' dT cap (N26) [26 (3'-3' dT cap); all C/U 2'-F]) [t2c]
Data returned: 0.2
